Biological target: CB1 receptor (Rattus norvegicus)
Test: CB1 receptor binding affinity (Ki)
Details: without PMSF; read-out: CB1 receptor affinity Ki
Procedure: Some disclosed compounds were tested for CB1 and CB2 receptor binding affinity (Tables 1, 2, 3, 4, 5). As used herein “binding affinity” is represented by the Ki value. The Ki value is the affinity constant and describes the affinity of the compound for the receptor. […] A detailed description of the methods used to test “binding affinity” of compounds is given in Makriyannis, et al., US 2007/0135388 the content of which is hereby incorporated by reference.
pKi: −log10 of the molar value.
measured metric: pKi

Study these solved cases before continuing.
compound: C[C@H](/C=C\C/C=C\C/C=C\CCCC(=O)N[C@H](C)CO)/C=C\CCCCCO
pKi: 6.70 to 8.00

compound: CCCCC/C=C\C/C=C\C/C=C\Cc1ccccc1CCCC(=O)NCCO
pKi: 6.70 to 8.00

compound: C[C@H](/C=C\C/C=C\C/C=C\CCCC(=O)N[C@H](C)CO)/C=C\CCCCCOC1CCCCO1 (some centres unmarked)
pKi: < 6.00

compound: C[C@H](/C=C\C/C=C\C/C=C\CCCC(=O)N[C@H](C)CO)/C=C\CCCCCBr
pKi: 8.00 to 11.00

// for each compound in input: emit pKi
1. CCCCC/C=C\[C@H](C)/C=C\C/C=C\Cc1ccccc1CCCC(=O)N[C@H](C)CO
2. C[C@H](/C=C\C/C=C\C/C=C\CCCC(=O)N[C@H](C)CO)/C=C\CCCCCC#N
3. C[C@H](/C=C\C/C=C\C/C=C\CCCC(=O)N[C@H](C)CO)/C=C\CCCCCO[N+](=O)[O-]
4. CCCCC/C=C\C/C=C\C/C=C\C/C=C\C1CC1C(=O)NCCO (centres unmarked)

Result string:
1: 8.00 to 11.00; 2: 8.00 to 11.00; 3: 8.00 to 11.00; 4: < 6.00

* * *

Biological target: CB1 receptor (Rattus norvegicus, UniProt P20272)
Sequence (P20272 whole entry): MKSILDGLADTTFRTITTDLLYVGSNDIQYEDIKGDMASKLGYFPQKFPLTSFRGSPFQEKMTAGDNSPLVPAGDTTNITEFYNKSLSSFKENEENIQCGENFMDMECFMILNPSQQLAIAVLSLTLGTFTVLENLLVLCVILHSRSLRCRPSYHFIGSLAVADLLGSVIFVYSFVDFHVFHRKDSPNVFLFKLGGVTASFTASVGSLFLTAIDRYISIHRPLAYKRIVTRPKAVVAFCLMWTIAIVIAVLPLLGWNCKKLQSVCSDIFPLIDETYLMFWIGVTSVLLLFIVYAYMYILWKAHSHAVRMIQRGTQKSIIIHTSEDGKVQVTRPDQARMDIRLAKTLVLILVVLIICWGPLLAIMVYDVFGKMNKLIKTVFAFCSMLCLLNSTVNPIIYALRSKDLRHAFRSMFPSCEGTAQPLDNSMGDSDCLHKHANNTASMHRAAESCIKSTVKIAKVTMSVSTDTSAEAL
Assay: CB1 receptor binding affinity (Ki)
Settings: with PMSF; read-out: CB1 Receptor Ki with PMSF
Experimental: Some disclosed compounds were tested for CB1 and CB2 receptor binding affinity (Tables 1, 2, 3, 4, 5). As used herein “binding affinity” is represented by the Ki value. The Ki value is the affinity constant and describes the affinity of the compound for the receptor. […] A detailed description of the methods used to test “binding affinity” of compounds is given in Makriyannis, et al., US 2007/0135388 the content of which is hereby incorporated by reference.
pKi: −log10 of the molar value.
measured metric: pKi

Study these solved cases before continuing.
molecule: C[C@H](/C=C\C/C=C\C/C=C\CCCC(=O)N[C@H](C)CO)/C=C\CCCCCC#N
system under test: CB1 receptor (Rattus norvegicus, UniProt P20272)
pKi: 8.00 to 11.00
--
molecule: CCCCC/C=C\C/C=C\C/C=C\Cc1ccccc1CCCC(=O)N[C@H](C)CO
system under test: CB1 receptor (Rattus norvegicus, UniProt P20272)
pKi: 6.70 to 8.00
--
molecule: C[C@H](/C=C\C/C=C\C/C=C\CCCC(=O)N[C@H](C)CO)/C=C\CCCCCOC1CCCCO1 (stereo partly shown)
system under test: CB1 receptor (Rattus norvegicus, UniProt P20272)
pKi: < 6.00

Query string: Please give the measured pKi for this molecule: CCCCC/C=C\C/C=C\C/C=C\C/C=C\C1CC(C(=O)NCCO)C1 (stereo not shown)
Result string: 6.00 to 6.70

* * *

Please respond with reported EC50 for every item in the list.
molecular target: CB2 receptor (hCB2) (Homo sapiens, UniProt P34972); test: cAMP assay (inhibition of FSK stimulated cAMP), CB2; assay type: cell-based; details: class symbols
Sequence (P34972 whole entry): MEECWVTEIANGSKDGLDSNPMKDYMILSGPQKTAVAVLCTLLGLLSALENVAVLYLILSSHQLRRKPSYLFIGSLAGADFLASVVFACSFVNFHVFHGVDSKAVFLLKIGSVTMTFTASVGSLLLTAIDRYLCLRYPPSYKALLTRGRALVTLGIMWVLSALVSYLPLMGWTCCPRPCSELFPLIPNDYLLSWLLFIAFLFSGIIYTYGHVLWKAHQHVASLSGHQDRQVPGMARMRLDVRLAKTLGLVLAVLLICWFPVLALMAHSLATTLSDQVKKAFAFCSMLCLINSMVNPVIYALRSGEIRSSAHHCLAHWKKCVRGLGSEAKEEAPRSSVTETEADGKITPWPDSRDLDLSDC

// for each molecule in input: emit EC50
1. C[C@H](/C=C\C/C=C\C/C=C\C1CC1C(=O)OC(CO)CO)/C=C\CCCCC(F)(F)F (single isomer, unassigned) [Compound 5.11.4]
2. CCCCC/C=C\C/C=C\C/C=C\C/C=C\C1CC[C@@H](C(=O)OC(CO)CO)C1 (stereo partly shown) [Compound 5.2.2e]
3. C[C@H](/C=C\C/C=C\C/C=C\[C@@H]1C[C@H]1C(=O)OC(CO)CO)/C=C\CCCCC(F)(F)F [Compound 5.12.1]
4. CCCCC/C=C\C/C=C\C/C=C\C/C=C\C1CCC(C(=O)OC(CO)CO)CC1 (stereo not shown) [Compound 5.2.2f]
5. CCCCC/C=C\[C@H](C)/C=C\C/C=C\Cc1ccccc1CCCC(=O)OC(CO)CO [Compound 5.9.3]
6. CCCCC/C=C\[C@H](C)/C=C\C/C=C\C/C=C\CCCC(=O)OC(CO)CO [Compound 5.4.3c]
7. C[C@H](/C=C\C/C=C\C/C=C\[C@@H]1C[C@@H]1C(=O)OC(CO)CO)/C=C\CCCCC(F)(F)F [Compound 5.12.4]

Result string:
["10 to 200 nM", "200 to 1000 nM", "10 to 200 nM", "> 1000 nM", "> 1000 nM", "0.01 to 10 nM", "10 to 200 nM"]

* * *

Molecular target: CB2 receptor (hCB2) (Homo sapiens, UniProt P34972)
Assay: cAMP assay (inhibition of FSK stimulated cAMP), CB2
Type: cell-based
Settings: numeric
Method: FIG. 2A is a graph providing data of the % inhibition of FSK stimulated cAMP for compound 6.1.1 for hCB2. Further functional characterization of some of the disclosed compounds tested initially for “binding affinity” or for GTPγ-S binding was performed by using the cyclic adenosine monophosphate (cAMP) assay. Key compounds initially characterized functionally using the GTPγ-S assay were also doubly tested using the cAMP assay to unambiguously confirm their functional profiles. […]
measured metric: EC50 (nM)
Give bare numbers, in nM.

Query string: Please give the measured EC50 for this compound: CCCCC/C=C\[C@H](C)/C=C\C/C=C\C/C=C\CCCCNC(=O)COC
Result string: 1.2

* * *

Please respond with reported pKi for every item in the list.
target: CB1 receptor (Rattus norvegicus); assay: CB1 receptor binding affinity (Ki); conditions: with PMSF; read-out: CB1 Receptor Ki with PMSF
pKi: −log10 of the molar value.

Study these solved cases before continuing.
compound: C[C@H](/C=C\C/C=C\C/C=C\CCCC(=O)N[C@H](C)CO)/C=C\CCCCCBr
reported: 8.00 to 11.00

compound: CCCCC/C=C\C/C=C\C/C=C\C/C=C\C1CC[C@@H](C(=O)NCCO)C1 (stereo partly drawn)
reported: 6.00 to 6.70

compound: C[C@H](/C=C\C/C=C\C/C=C\CCCC(=O)N[C@H](C)CO)/C=C\CCCCCO[N+](=O)[O-]
reported: 8.00 to 11.00

compound: CCCCC/C=C\C/C=C\C/C=C\C/C=C\C1CCC(C(=O)NCCO)CC1 (stereo not drawn)
reported: 6.00 to 6.70

// for each compound in input: emit pKi
1. CCCCC/C=C\C/C=C\C/C=C\C/C=C\C1(CC(=O)NCCO)CCC1
2. CCCCC/C=C\[C@H](C)/C=C\C/C=C\Cc1ccccc1CCCC(=O)N[C@H](C)CO
3. CCCCC1(/C=C\C/C=C\C/C=C\C/C=C\CCCC(=O)N[C@H](C)CO)CCCC1

Result string:
1: 6.00 to 6.70; 2: 8.00 to 11.00; 3: 6.00 to 6.70

// for each compound in input: emit pKi
1. CCCCC/C=C\C/C=C\C/C=C\Cc1ccccc1CCCC(=O)NCCO
2. CCCCCc1ccccc1C/C=C\C/C=C\C/C=C\CCCC(=O)N[C@H](C)CO

Result string:
1: 6.70 to 8.00; 2: 6.70 to 8.00

* * *

molecular target: CB1 receptor (rCB1) (Rattus norvegicus); test: cAMP assay (inhibition of FSK stimulated cAMP), CB1; format: cell-based; conditions: numeric
Sequence (P20272 whole entry): as the sequence (P20272 whole entry) above
Please respond with reported EC50 for every item in the list.
In your response, the unit should come after the numeric value.

Study these solved cases before continuing.
compound: CCCCC/C=C\[C@H](C)/C=C\C/C=C\C/C=C\CCCC(=O)OC(CO)CO [Compound 5.4.3c]
measured metric: EC50
reported: 10.3 nM
--
compound: C[C@H](/C=C\C/C=C\C/C=C\CCCC(=O)N[C@H](C)CO)/C=C\CCCCCC#N [Compound 4.1.5a]
measured metric: EC50
reported: 8.7 nM

Let's switch to this compound now.
Query string: Please give the measured EC50 for this compound: CCCCC/C=C\[C@@H](C)/C=C\C/C=C\C/C=C\CCCC(=O)OC(CO)CO [Compound 5.4.3d]
Result string: 4.1 nM
